Test system: Cyp1a1 mRNA in liver
assay_notes: Cyp1a1 gene expression in liver (real-time PCR)
Assay type: in vivo, female C57BL/6 mice
condition_label: relative to TCDD; dose metric Syst plasma (ng/g lipid)
parameter: REP Liver Cyp1a1 mRNA
A bare number is all that is needed in reply.

stdin: Entry Clc1cc2c(cc1Cl)Oc1cc(Cl)c(Cl)cc1O2 [TCDD, 2,3,7,8-tetrachlorodibenzodioxin, reference compound] has what REP Liver Cyp1a1 mRNA?
stdout: 1

stdin: Entry Clc1ccc(-c2cc(Cl)c(Cl)c(Cl)c2Cl)cc1Cl has what REP Liver Cyp1a1 mRNA?
stdout: 0.000009

stdin: Entry Clc1ccc(-c2cc(Cl)c(Cl)cc2Cl)cc1Cl has what REP Liver Cyp1a1 mRNA?
stdout: 0.000003

stdin: Entry Clc1ccc(-c2cc(Cl)c(Cl)c(Cl)c2)cc1Cl has what REP Liver Cyp1a1 mRNA?
stdout: 0.008

stdin: Entry Clc1cc2c(cc1Cl)Oc1c(cc(Cl)c(Cl)c1Cl)O2 has what REP Liver Cyp1a1 mRNA?
stdout: 0.7

###

assay_notes: Body and organ weight, hepatic lipid content
Type: in vivo, female C57BL/6 mice
condition_label: oral dose 25 µg/kg bw; day 3
parameter: Spleen weight

stdin: Entry Clc1ccc(-c2cc(Cl)c(Cl)c(Cl)c2)cc1Cl has what Spleen weight?
stdout: 0.33 ± 0.06 % of bw

stdin: Entry Clc1cc2oc3c(Cl)c(Cl)c(Cl)cc3c2cc1Cl has what Spleen weight?
stdout: 0.33 ± 0.04 % of bw

stdin: Entry Clc1cc2c(cc1Cl)Oc1c(cc(Cl)c(Cl)c1Cl)O2 has what Spleen weight?
stdout: 0.32 ± 0.04 % of bw

stdin: Entry Clc1cc2c(cc1Cl)Oc1cc(Cl)c(Cl)cc1O2 [TCDD, 2,3,7,8-tetrachlorodibenzodioxin, reference compound] has what Spleen weight?
stdout: 0.34 ± 0.02 % of bw

###

assay_notes: Body and organ weight, hepatic lipid content
Type: in vivo, female C57BL/6 mice
condition_label: oral dose 25 µg/kg bw; day 3
parameter: Body weight (gram)
Expressed in gram, but write only the number.

stdin: Entry Clc1cc2oc3c(Cl)c(Cl)c(Cl)cc3c2cc1Cl has what Body weight?
stdout: 19.0

stdin: Entry Clc1cc2c(cc1Cl)Oc1cc(Cl)c(Cl)cc1O2 [TCDD, 2,3,7,8-tetrachlorodibenzodioxin, reference compound] has what Body weight?
stdout: 19.6

stdin: Entry Clc1ccc(-c2cc(Cl)c(Cl)c(Cl)c2)cc1Cl has what Body weight?
stdout: 18.9

stdin: Entry Clc1cc2c(cc1Cl)Oc1c(cc(Cl)c(Cl)c1Cl)O2 has what Body weight?
stdout: 19.4

###

System: Cyp1a2 mRNA in liver
assay_notes: Cyp1a2 gene expression in liver (real-time PCR)
Assay type: in vivo, female C57BL/6 mice
condition_label: relative to TCDD; dose metric Adm dose (µg/kg BW)
Decision: REP Liver Cyp1a2 mRNA >= 0.005 yields true, all other cases yield false.

stdin: Form field: REP Liver Cyp1a2 mRNA at least 0.005? Entry: Clc1cc2oc3c(Cl)c(Cl)c(Cl)cc3c2cc1Cl
stdout: true

stdin: Form field: REP Liver Cyp1a2 mRNA at least 0.005? Entry: Clc1ccc(-c2cc(Cl)c(Cl)c(Cl)c2Cl)cc1Cl
stdout: false

stdin: Form field: REP Liver Cyp1a2 mRNA at least 0.005? Entry: Clc1cc2c(cc1Cl)Oc1cc(Cl)c(Cl)cc1O2 [TCDD, 2,3,7,8-tetrachlorodibenzodioxin, reference compound]
stdout: true

stdin: Form field: REP Liver Cyp1a2 mRNA at least 0.005? Entry: Clc1ccc(-c2cc(Cl)c(Cl)cc2Cl)cc1Cl
stdout: false

stdin: Form field: REP Liver Cyp1a2 mRNA at least 0.005? Entry: Clc1cc2c(cc1Cl)Oc1c(cc(Cl)c(Cl)c1Cl)O2
stdout: true
